Sourced from paper PMC3763551

# MEASUREMENT_TARGET: EcTrmL (Escherichia coli, UniProt P0AGJ7, R20E)
# Sequence (P0AGJ7 whole entry R20E): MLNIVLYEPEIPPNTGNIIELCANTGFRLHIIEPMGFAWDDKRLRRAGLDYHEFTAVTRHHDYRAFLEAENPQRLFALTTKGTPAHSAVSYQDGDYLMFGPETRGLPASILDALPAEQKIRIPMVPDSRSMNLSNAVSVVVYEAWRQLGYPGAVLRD
# ASSAY_NAME: isothermal titration calorimetry, one-site model
RESULT_TYPE: pKd
Entry type: numeric. Quantity: pKd, the -log10 of concentration in molar units.

Recorded result, Nc1ncnc2c1ncn2[C@@H]1O[C@H](CSCC[C@H](N)C(=O)O)[C@@H](O)[C@H]1O , pKd: 4.35

----------
# MEASUREMENT_TARGET: EcTrmL (Escherichia coli, UniProt P0AGJ7, K81E)
# Sequence (P0AGJ7 whole entry K81E): as the sequence (P0AGJ7 whole entry R20E) above, with E20R, K81E counted along it
# ASSAY_NAME: isothermal titration calorimetry, one-site model
RESULT_TYPE: pKd
Entry type: numeric. Quantity: pKd, the -log10 of concentration in molar units.

Recorded result, Nc1ncnc2c1ncn2[C@@H]1O[C@H](CSCC[C@H](N)C(=O)O)[C@@H](O)[C@H]1O , pKd: 4.52
